MEASURED ON: HDAC6 enzyme (Homo sapiens, UniProt Q9UBN7)
Construct: transducing full length HDAC1 and HDAC6 genes into Sf-9 insect cells; GST; purchased SignalChem; host or cells: Sf-9 insect cells
Sequence (Q9UBN7 whole entry): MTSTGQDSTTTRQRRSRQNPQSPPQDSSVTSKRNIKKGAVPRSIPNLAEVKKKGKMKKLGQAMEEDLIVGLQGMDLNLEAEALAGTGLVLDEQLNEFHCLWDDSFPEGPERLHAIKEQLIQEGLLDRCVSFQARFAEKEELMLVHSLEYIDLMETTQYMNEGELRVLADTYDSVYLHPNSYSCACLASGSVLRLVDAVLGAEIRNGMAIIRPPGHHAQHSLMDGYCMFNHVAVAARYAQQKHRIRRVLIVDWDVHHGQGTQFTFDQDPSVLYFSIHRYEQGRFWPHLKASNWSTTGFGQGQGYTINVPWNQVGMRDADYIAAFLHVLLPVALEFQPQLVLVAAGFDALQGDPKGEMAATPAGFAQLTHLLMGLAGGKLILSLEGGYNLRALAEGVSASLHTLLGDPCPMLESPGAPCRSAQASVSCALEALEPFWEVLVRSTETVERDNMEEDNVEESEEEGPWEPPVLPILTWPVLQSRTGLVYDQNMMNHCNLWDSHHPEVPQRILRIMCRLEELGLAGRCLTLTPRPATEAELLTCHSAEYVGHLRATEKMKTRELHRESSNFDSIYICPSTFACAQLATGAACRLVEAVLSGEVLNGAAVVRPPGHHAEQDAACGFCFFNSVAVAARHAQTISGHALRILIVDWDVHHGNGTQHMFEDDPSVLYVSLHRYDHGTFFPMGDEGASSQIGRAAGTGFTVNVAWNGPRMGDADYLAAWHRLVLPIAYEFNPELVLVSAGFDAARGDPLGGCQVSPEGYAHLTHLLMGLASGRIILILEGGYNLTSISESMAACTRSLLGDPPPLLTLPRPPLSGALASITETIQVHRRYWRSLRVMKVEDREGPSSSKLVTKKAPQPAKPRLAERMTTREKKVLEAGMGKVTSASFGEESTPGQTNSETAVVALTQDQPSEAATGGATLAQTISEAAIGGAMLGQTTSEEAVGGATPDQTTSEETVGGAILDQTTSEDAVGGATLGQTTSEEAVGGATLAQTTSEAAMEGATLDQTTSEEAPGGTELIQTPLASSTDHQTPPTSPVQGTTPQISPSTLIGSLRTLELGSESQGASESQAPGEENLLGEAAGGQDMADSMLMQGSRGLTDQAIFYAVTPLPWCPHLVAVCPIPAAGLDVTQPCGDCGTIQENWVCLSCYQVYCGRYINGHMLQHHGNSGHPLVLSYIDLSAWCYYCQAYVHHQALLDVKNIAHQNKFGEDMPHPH
METHOD NOTES: HDAC1/6 Enzyme Inhibitory Assay (HDAC-Glo I/II Assay kit), HDAC6
Format: biochemical
TEST CONTEXT: 1 μM test compound; wells without enzyme = 100% inhibition; read-out: HDAC6 inhibitory rate (%) (1 μM)
Experimental: HDAC1/6 Enzyme Inhibitory Assay HDAC1 enzyme and HDAC6 enzyme each prepared by transducing full length HDAC1 and HDAC6 genes into Sf-9 insect cells and purifying by GST affinity column were purchased from SignalChem. Using these enzymes, HDAC1 and/or HDAC6 enzyme inhibitory activities of the compound of the present invention were evaluated. […] After reacting at room temperature for 20 min, luminescence level was measured using plate reader Envision (PerkinElmer). […]
Recorded inhibition at 1 µM values for a group of compounds are listed next.

COMPOUND	UNIT ABBREV	inhibition at 1 µM
O=C(N[C@@H]1CCCC[C@H]1N1Cc2ncc(-c3noc(C(F)(F)F)n3)cc2C1=O)C1CC1	%	102
CC1(C(=O)N[C@@H]2CCCC[C@@H]2N2Cc3ccc(-c4noc(C(F)(F)F)n4)cc3C2=O)COC1 (relative stereo)	%	96
O=C(c1ccccc1)N1C[C@@H](N2Cc3ccc(-c4noc(C(F)(F)F)n4)cc3C2=O)[C@H](c2ccccc2)C1 (relative stereo)	%	96
O=C1CCCN1[C@@H]1COCC[C@H]1N1Cc2ccc(-c3noc(C(F)(F)F)n3)cc2C1=O	%	98
O=C1c2cc(-c3noc(C(F)(F)F)n3)ccc2CN1[C@@H]1CCNC[C@H]1c1cccc(Cl)c1 (relative stereo)	%	97
CC(=O)N1CC(C)(C(=O)N[C@@H]2CCCC[C@H]2N2Cc3ccc(-c4noc(C(F)(F)F)n4)cc3C2=O)C1	%	98
COC1CN(C(=O)N[C@@H]2CCCC[C@H]2N2Cc3ccc(-c4noc(C(F)(F)F)n4)cc3C2=O)C1	%	95
O=C1c2cc(-c3noc(C(F)(F)F)n3)ccc2CN1[C@@H]1CC[C@@H]1Cc1ccccc1 (relative stereo)	%	92
Cc1cc([C@@H]2CNCC[C@H]2N2Cc3ccc(-c4noc(C(F)(F)F)n4)cc3C2=O)ccc1Cl (relative stereo)	%	94
CN1CCC[C@H]1C(=O)N[C@@H]1CCCC[C@H]1N1Cc2ccc(-c3noc(C(F)(F)F)n3)cc2C1=O	%	98
O=C1c2cc(-c3noc(C(F)(F)F)n3)ccc2CN1[C@@H]1CCCC[C@H]1NC(=O)C1(CO)CCOCC1	%	97

----------
Recorded inhibition at 1 µM values for a group of compounds are listed next.
MEASURED ON: HDAC6 enzyme (Homo sapiens, UniProt Q9UBN7)
Construct: transducing full length HDAC1 and HDAC6 genes into Sf-9 insect cells; GST; purchased SignalChem; host or cells: Sf-9 insect cells
METHOD NOTES: HDAC1/6 Enzyme Inhibitory Assay (HDAC-Glo I/II Assay kit), HDAC6
Type: biochemical
TEST CONTEXT: 1 μM test compound; wells without enzyme = 100% inhibition; read-out: HDAC6 inhibitory rate (%) (1 μM)
READOUT: inhibition at 1 µM (%)

SMILES REPR	READOUT	UNIT ABBREV	OBSERVED
N[C@@H]1CCC[C@H]1N1Cc2ccc(-c3noc(C(F)(F)F)n3)cc2C1=O	inhibition at 1 µM	%	-3
O=C(N[C@@H]1CCOC[C@H]1N1Cc2ccc(-c3noc(C(F)(F)F)n3)cc2C1=O)[C@H]1CCOC1	inhibition at 1 µM	%	98
CC1(C(=O)N[C@@H]2CCC(F)(F)C[C@H]2N2Cc3ccc(-c4noc(C(F)(F)F)n4)cc3C2=O)COC1	inhibition at 1 µM	%	99

All values here come from patent US10308643B2.
